// merged dataset of Ki values, system = Human σ1 receptor (Homo sapiens, UniProt Q99720), multiple refs
Sequence (Q99720 whole entry): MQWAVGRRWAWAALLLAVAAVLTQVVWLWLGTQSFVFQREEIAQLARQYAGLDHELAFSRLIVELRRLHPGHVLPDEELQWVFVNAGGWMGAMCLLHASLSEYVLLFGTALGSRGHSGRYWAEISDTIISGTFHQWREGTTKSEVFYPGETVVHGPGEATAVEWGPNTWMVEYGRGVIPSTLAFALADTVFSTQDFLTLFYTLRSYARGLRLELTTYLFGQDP

Would you please look over these solved cases?
| compound | Ki |
| --- | --- |
| Cc1nn2c(C3CCCN(Cc4ccc(Cl)cc4)C3)ccnc2c1CNCCO (stereo not drawn) | < 500 nM |
| CC[C@H]1CCn2c(nc3ccc(Br)cc3c2=O)[C@@H]1N1CCCN(C)CC1 | 500 to 1000 nM |
| CCC[C@H](c1nc2ccc(Cl)cc2c(=O)n1CC)N1CCN(C)C[C@@H](C)C1 | 500 to 1000 nM |
| c1ccc(CN2CCCC(c3ccnc4cc(-c5ccccc5)nn34)C2)cc1 (stereo not drawn) | 500 to 1000 nM |
| Cc1nn2c([C@@H]3CCCN(Cc4ccc(Cl)cc4)C3)ccnc2c1CNCC1CCOCC1 | < 500 nM |
| Cc1cnc2c(Br)cnn2c1C1CCCN(Cc2ccccc2)C1 (stereo not drawn) | > 1000 nM |

Provide reported Ki for each item, in the same order as listed.
1. CC(C)CN(C)[C@H]1CC[C@@]2(CC1)CN(C(=O)c1ccccc1)CC1(CC1)O2
2. CCN1CC(C2CN(Cc3ccccc3)C2)OC2(CC2)C1=O (stereo not drawn)
3. CCCC(c1nc2cc(F)c(Br)cc2c(=O)n1C)N1CCCN(C)CC1 (stereo not drawn)

1: < 500 nM; 2: < 500 nM; 3: < 500 nM

Hi there! I need Ki for each item below, if you can.
1. CCc1nn2c(C3CCCN(Cc4ccccc4)C3)ccnc2c1Br (stereo not drawn)
2. Cc1nn2c([C@H]3CCCN(Cc4ccccc4)C3)ccnc2c1CNC[C@@H]1CCN(C)C(=O)C1
3. Clc1nn2c([C@@H]3CCCN(Cc4ccccc4)C3)ccnc2c1CNCC1CCOCC1
4. CCCC(c1nc2nc(C(F)(F)F)ccc2c(=O)n1CC)N1CCCN(C)CC1 (stereo not drawn)
5. c1ccc(CCN2CCCC3(C2)CN(c2ccccc2)CC2(CC2)O3)cc1 (stereo not drawn)
6. CCN1CCC(C2CN(Cc3ccc(OC)cc3)C(=O)C3(CC3)O2)CC1 (stereo not drawn)
7. CCCC(c1nc2cccnc2c(=O)n1CC)N1CCCN(CC)CC1 (stereo not drawn)
8. Cc1nn2c([C@H]3CCCN(Cc4ccccc4)C3)ccnc2c1CNC[C@@H]1CCC(=O)NC1

1: < 500 nM; 2: > 1000 nM; 3: < 500 nM; 4: > 1000 nM; 5: < 100 nM; 6: ≥ 500 nM; 7: > 1000 nM; 8: > 1000 nM

# get_value(readout='Ki', item= Cc1cc2nccc(C3CCCN(Cc4ccccc4F)C3)n2n1 (stereo not drawn) ) > 1000 nM

---

Here's a roundup of Ki values tested on Human σ1 receptor (Homo sapiens), taken from various published works.

| compound | Ki |
| --- | --- |
| Cc1nn2c(C3CCCN(Cc4ccc(Cl)cc4)C3)ccnc2c1CNCCC(C)C (stereo not drawn) | < 0.5 µM |
| CCCC(c1nc2cc(C)ccc2c(=O)n1CC)N1CCCN(C)CC1 (stereo not drawn) | > 1 µM |
| CCC[C@H](c1nc2ccc(F)cc2c(=O)n1CCC)N1CCCN(CC)CC1 | < 0.5 µM |
| CC(C)CCN1CCC(C2CN(C(=O)c3ccccc3)CC3(CC3)O2)CC1 (stereo not drawn) | < 0.1 µM |
| Clc1ccc(CN2CCCC(c3ccnc4cc(Br)nn34)C2)cc1Cl (stereo not drawn) | > 1 µM |

Look at each compound and report its Ki.
1. Cc1cc2nccc(C3CCCN(CCc4ccccc4)C3)n2n1 (stereo not drawn)
2. Cc1nnc(CNCc2c(C)nn3c(C4CCCN(Cc5ccc(Cl)cc5)C4)ccnc23)o1 (stereo not drawn)
3. CCC[C@@H](c1nc2ccncc2c(=O)n1CC)N1CCN(C)C[C@H](C)C1
4. CCCC(c1nc2ccc(Br)cc2c(=O)n1CC)N1CCCN(Cc2ccccc2)CC1 (stereo not drawn)

["> 1 µM", "0.5 to 1 µM", "> 1 µM", "< 0.5 µM"]

Can you give me Ki for all of these, one by one?
1. Cc1nn2c(C3CCCN(Cc4ccc(Cl)cc4)C3)ccnc2c1-c1cncnc1 (stereo not drawn)
2. CCC[C@H](c1nc2ncc(F)cc2c(=O)n1CC1CC1)N1CCN[C@@H](C)CC1
3. CCCC(c1nc2ccc(Br)c(C)c2c(=O)n1CC)N1CCCN(CC)CC1 (stereo not drawn)

["> 1 µM", "> 1 µM", "< 0.5 µM"]

I need Ki for every entry listed below, if you could help.
1. Cc1nn2c(C3CCCN(Cc4ccccc4)C3)ccnc2c1N(C)Cc1ccccc1 (stereo not drawn)
2. CCCC(c1nc2cc(F)c(F)cc2c(=O)n1CC)N1CCCNCC1 (stereo not drawn)
3. CCOc1ccc(-c2cnn3c(C4CCCN(Cc5ccccc5)C4)ccnc23)cc1 (stereo not drawn)
4. CCC[C@H](c1nc2ccc(Br)cc2c(=O)n1CC)N1CCCN(C)CC1
5. Cc1cnc2c(Br)c(C)nn2c1C1CCCN(Cc2ccccc2)C1 (stereo not drawn)
6. CNCc1cn(-c2cccc(-c3c(C)nn4c(C5CCCN(Cc6ccccc6)C5)ccnc34)c2)nn1 (stereo not drawn)

1. 0.5 to 1 µM
2. > 1 µM
3. > 1 µM
4. < 0.5 µM
5. > 1 µM
6. > 1 µM

---

What follows is literature data on Ki for Human σ1 receptor (Homo sapiens).

| compound | Ki |
| --- | --- |
| COc1nn2c(C3CCCN(Cc4ccc(Cl)cc4)C3)ccnc2c1CNCC1CCOCC1 (stereo not drawn) | < 0.5 µM |
| CCCC(c1nc2ccc(Br)cc2c(=O)n1CC)N1CCN(C)CC(F)(F)C1 (stereo not drawn) | > 1 µM |
| CC(C)N1CC(C2CCN(Cc3ccc(F)cc3)CC2)OC2(CC2)C1=O (stereo not drawn) | ≥ 0.5 µM |

Hi there! I need Ki for each item below, if you can.
1. CCN1CC(C2CN(CCC(C)C)C2)OC2(CC2)C1=O (stereo not drawn)
2. COc1ccc(CN2CC(C3CCN(Cc4ccccc4)CC3)OC3(CC3)C2)cc1 (stereo not drawn)
3. CCC[C@H](c1nc2ccc(F)cc2c(=O)n1C)N1CCCN(CC)CC1

1: < 0.5 µM; 2: < 0.1 µM; 3: < 0.5 µM

// batch mode: one Ki value per listed entry
1. CCCC(c1nc2ccc(Br)c(Cl)c2c(=O)n1CC)N1CCCN(CC)CC1 (stereo not drawn)
2. CCN1C[C@@]2(CCCN(CCC(C)C)CC2)O[C@H](C)C1=O

< 0.5 µM
≥ 0.5 µM

Query (compound): Cc1nn2c(C3CCCN(Cc4ccc(Cl)cc4)C3)ccnc2c1CN(CC1CCOCC1)CC(F)(F)F (stereo not drawn) ; field requested: Ki 0.5 to 1 µM

---

Compiled from multiple publications: Ki readings for Human σ1 receptor (Homo sapiens, UniProt Q99720).

| compound | Ki |
| --- | --- |
| CCN1CC2(CCCN(Cc3ccccc3)C2)OC2(CC2)C1=O (stereo not drawn) | ≥ 500 nM |
| CN(Cc1ccccc1)[C@H]1CC[C@]2(CC1)CN(c1ccccc1)C(=O)C1(CC1)O2 | < 500 nM |
| CCC[C@@H](c1nc2cc(F)c(Cl)cc2c(=O)n1CC)N1CCN(C)C[C@H](C)C1 | 500 to 1000 nM |
| O=C1NC2(CCN(Cc3ccccc3)CC2)Cc2ccccc21 | < 100 nM |

List reported Ki for each of these compounds:
1. CCC[C@H](c1nc2ccc(F)cc2c(=O)n1Cc1ccoc1)N1CCCN(C)CC1
2. Cc1nn2c(C3CCCN(Cc4ccc(Cl)cc4)C3)ccnc2c1CNCC1(F)CCOCC1 (stereo not drawn)
3. COc1cc(-c2cc3nccc(C4CCCN(Cc5ccccc5)C4)n3n2)ccn1 (stereo not drawn)
4. c1ccc(CN2CCCC(c3ccnc4cc(-c5cnsc5)nn34)C2)cc1 (stereo not drawn)

1: < 500 nM; 2: < 500 nM; 3: > 1000 nM; 4: > 1000 nM

Can you look up the measured Ki of Cc1nn2c(C3CCCN(Cc4ccccc4)C3)ccnc2c1CNCc1ccccc1 (stereo not drawn) for me? < 500 nM

---

pKi: −log10 of the molar value.
Compiled from multiple publications: pKi readings for Human σ1 receptor (Homo sapiens, UniProt Q99720).

Look over these answered cases.
| molecule | tgt | pKi |
| --- | --- | --- |
| COc1ccc(CN2CC(C3CCN(CCC(C)C)CC3)OC3(CC3)C2)cc1 (stereo not drawn) | Human σ1 receptor (Homo sapiens, UniProt Q99720) | > 7.00 |
| COc1ccc(CN2CC(C3CCN(CCc4ccccc4)CC3)OC3(CC3)C2=O)cc1 (stereo not drawn) | Human σ1 receptor (Homo sapiens, UniProt Q99720) | ≤ 6.30 |
| Brc1cnn2c(C3CCCN(Cc4ccccc4)C3)ccnc12 (stereo not drawn) | Human σ1 receptor (Homo sapiens, UniProt Q99720) | > 6.30 |
| Cc1nn2c(C3CCCCN(Cc4ccc(Cl)cc4)C3)ccnc2c1CNCC1CCOCC1 (stereo not drawn) | Human σ1 receptor (Homo sapiens, UniProt Q99720) | > 6.30 |
| COc1ccc(CN2CC(C3CCN(CCc4ccccc4)CC3)OC3(CC3)C2)cc1 (stereo not drawn) | Human σ1 receptor (Homo sapiens, UniProt Q99720) | ≤ 6.30 |

Hey, can you go through the list below and give me pKi for every item?
1. O=C(c1ccccc1)N1CC(C2CCN(Cc3ccccc3)CC2)OC2(CC2)C1 (stereo not drawn)
2. CCN1CC(C2CCN(Cc3ccccc3)CC2)OCC1=O (stereo not drawn)
3. CCCC(c1nc2ccc(F)cc2c(=O)n1CC)N1CCCN(C)CC1 (stereo not drawn)
4. CCCC(c1nc2c(F)cc(Br)cc2c(=O)n1CC)N1CCCN(C)CC1 (stereo not drawn)
5. CCC[C@@H](c1nc2cc(Cl)c(Cl)cc2c(=O)n1CC)N1CCNC[C@H](C)C1
6. Cc1nn2c(C3CCCN(Cc4ccccc4)C3)ccnc2c1CNCCc1ccccc1 (stereo not drawn)
7. CCN1C[C@H](C2CCN(Cc3ccccc3)CC2)O[C@H](C)C1=O
8. CCC[C@@H](c1nc2ccc(Cl)cc2c(=O)n1C)N1CCCN[C@@H](C)C1

> 7.00
> 7.00
> 6.30
6.00 to 6.30
< 6.00
> 6.30
≤ 6.30
> 6.30
